// reported self-splicing fitness (ln) for each item listed
Assay: self-splicing fitness, log relative to wild type (ln ratio); higher = more splicing; Tetrahymena group I intron in knt gene, E. coli kanamycin selection, DiMSum; sequences stand for … in CUCUCU…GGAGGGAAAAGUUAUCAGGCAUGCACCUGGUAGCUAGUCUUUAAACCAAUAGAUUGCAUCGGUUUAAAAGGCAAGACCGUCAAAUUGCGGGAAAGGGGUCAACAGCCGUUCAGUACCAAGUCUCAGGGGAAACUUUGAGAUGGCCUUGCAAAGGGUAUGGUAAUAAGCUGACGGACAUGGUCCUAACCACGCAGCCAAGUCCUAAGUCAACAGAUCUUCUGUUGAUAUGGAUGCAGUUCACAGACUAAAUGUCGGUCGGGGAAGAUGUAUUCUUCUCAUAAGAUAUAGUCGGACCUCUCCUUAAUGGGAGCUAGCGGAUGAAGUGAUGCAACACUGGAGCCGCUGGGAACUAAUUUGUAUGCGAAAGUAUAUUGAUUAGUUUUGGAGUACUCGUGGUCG;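 also: selection with 25 µg/mL kanamycin versus none on LB agar overnight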
Settings: 37 °C
Write the number on its own, no unit after it.

{"SEQ STRING": "CAUCAGCAAUAUUACGUCAC", "self-splicing fitness (ln)": -2.68}
{"SEQ STRING": "CUCGAGCAAUAUUACGCGAC", "self-splicing fitness (ln)": -0.0316}
{"SEQ STRING": "CUGAAGCAAUAUUACGUUAA", "self-splicing fitness (ln)": -2.65}
{"SEQ STRING": "UAUUAGCAAUAUUACGUGCA", "self-splicing fitness (ln)": -0.986}

Query string: Fill in the blank: the reported self-splicing fitness (ln) of `AUAGAGCAAUAUUACGCUCU` is ____.
Result string: -1.32

Query string: Please answer likewise for `GUAAAGCAAUAUUACGGCUA`
Result string: 0.518

Query string: Please answer likewise for `UGCUAGCAAUAUUACGGGAG`
Result string: -1.65

Query string: Please answer likewise for `UAGGAGCAAUAUUACGCUCG`
Result string: 0.196
